Measured melting point values are reported for all entries that follow.

Worked cases, answers included:
| INPUT_SMILES | melting point |
| --- | --- |
| COc1cccc(C(=O)Nc2cncc(Cl)n2)c1 | 131.6 to 132.7 °C |
| COc1ccccc1C(=O)Nc1cncc(Cl)n1 | 149.1 to 150.7 °C |
| COc1ccc(C(=O)Nc2cncc(Cl)n2)cc1 | 196.9 to 198.8 °C |
| O=C(Nc1cnc(Cl)cn1)c1ccccc1O | 197.7 to 198.2 °C |

q: Provide melting point value for the following compound: "O=C(Nc1cnc(Cl)cn1)c1ccc(Br)cc1"
a: 229.2 to 230.5 °C

q: Determine its reported melting point: "O=C(Nc1cnc(Cl)cn1)c1ccc(Cl)cc1"
a: 225 to 226.3 °C

* * *

System: Trichophyton interdigitale 445
PROTOCOL: Antifungal microdilution broth, TI
Assay type: cell-based
TEST_CONTEXT: Trichophyton interdigitale, 445, 120 h, read-out: MIC TI
VALUE_KIND: MIC

| INPUT_SMILES | ASSAYED_TARGET | RECORDED_MEASUREMENT |
| --- | --- | --- |
| O=C(Nc1cnccn1)c1cccc(O)c1 | Trichophyton interdigitale 445 | > 500 µM |
| Cc1ccc(C(=O)Nc2cnccn2)cc1 | Trichophyton interdigitale 445 | > 500 µM |
| COc1ccccc1C(=O)Nc1cncc(Cl)n1 | Trichophyton interdigitale 445 | > 500 µM |
| Cc1ccc(C(=O)Nc2cnc(Cl)cn2)cc1 | Trichophyton interdigitale 445 | > 125 µM |
| CCc1ccc(C(=O)Nc2cnc(Cl)cn2)cc1 | Trichophyton interdigitale 445 | > 125 µM |
| O=C(Nc1cnccn1)c1cccc(Cl)c1 | Trichophyton interdigitale 445 | > 125 µM |
| O=C(Nc1cnc(Cl)cn1)c1ccc(Cl)cc1 | Trichophyton interdigitale 445 | > 125 µM |
| O=C(Nc1cnc(Cl)cn1)c1ccccc1 | Trichophyton interdigitale 445 | > 500 µM |

q: Fill in reported MIC for this entry: "O=C(Nc1cnc(Cl)cn1)c1ccccc1O"
a: 125 µM

q: Fill in reported MIC for this entry: "CC(=O)Oc1ccc(C(=O)Nc2cnc(Cl)cn2)cc1"
a: > 125 µM

q: Give the reported MIC for this compound. "COc1cccc(C(=O)Nc2cnccn2)c1"
a: > 500 µM

q: Supply MIC value. Item: "O=C(Nc1cnccn1)c1ccccc1O"
a: 500 µM

* * *

List of MIC values.
Test system: Candida tropicalis 156
PROTOCOL: Antifungal microdilution broth, CT
Format: cell-based
TEST_CONTEXT: Candida tropicalis, 156, 24 h, read-out: MIC CT

| INPUT_SMILES | MIC |
| --- | --- |
| CC(=O)Oc1ccc(C(=O)Nc2cnccn2)cc1 | > 500 µM |
| O=C(Nc1cnccn1)c1ccccc1Cl | > 500 µM |
| O=C(Nc1cnc(Cl)cn1)c1ccccc1O | 125 µM |
| O=C(Nc1cnc(Cl)cn1)c1ccc(Br)cc1 | > 125 µM |
| O=C(Nc1cnccn1)c1ccc(Cl)cc1 | > 125 µM |
| COc1ccc(C(=O)Nc2cnccn2)cc1 | > 500 µM |
| CC(=O)Oc1cccc(C(=O)Nc2cnccn2)c1 | > 500 µM |
| O=C(Nc1cnc(Cl)cn1)c1ccccc1 | > 500 µM |
| O=C(Nc1cnc(Cl)cn1)c1cccc(O)c1 | > 500 µM |
| CCc1ccc(C(=O)Nc2cnccn2)cc1 | > 500 µM |

q: Output MIC of "O=C(Nc1cnccn1)c1ccccc1"
a: > 500 µM

q: Determine from records and report MIC for "Cc1ccc(C(=O)Nc2cnc(Cl)cn2)cc1"
a: > 125 µM

q: Give the reported MIC for this compound. "O=C(Nc1cncc(Cl)n1)c1ccccc1Cl"
a: > 500 µM

q: Answer with the recorded MIC for the compound listed here: "O=C(c1ccc(Cl)cc1)N(C(=O)c1ccc(Cl)cc1)c1cnccn1"
a: > 125 µM

q: Give the measured MIC for "O=C(Nc1cnc(Cl)cn1)c1cccc(Cl)c1"
a: > 125 µM

q: # return recorded MIC for entry "CC(=O)Oc1ccc(C(=O)Nc2cnc(Cl)cn2)cc1"
a: > 125 µM

q: Recall and state the measured MIC for "COc1ccccc1C(=O)Nc1cnccn1" .
a: > 500 µM
